B1: TPR t1 (parent)
chain: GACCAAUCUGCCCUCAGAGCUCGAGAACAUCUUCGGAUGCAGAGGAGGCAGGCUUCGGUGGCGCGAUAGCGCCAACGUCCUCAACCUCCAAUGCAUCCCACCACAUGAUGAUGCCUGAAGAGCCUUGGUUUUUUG

- Variants of: B1
- method-summary: polymerase ribozyme fitness, log enrichment relative to wild type (log ratio); higher = more active; in vitro selection for triplet polymerase activity
Exercise: for every item that follows, state its recorded polymerase ribozyme fitness (log ratio).
Please give the numeric answer without any surrounding text.

Query: Can you share its polymerase ribozyme fitness (log ratio)? I mean this variant: C11G A111G G120C G127U
Response: 0.661

Query: Ok, now C56U U131G
Response: 0.127

Query: Ok, now C79U A95G A105U
Response: -2.87

Query: Ok, now G77A C104A G128A
Response: -3.06

Query: Ok, now G19U G25A C53U C64G G107C C114G
Response: -8.12

Query: Ok, now C56A C72G A90G
Response: -1.05

Query: Ok, now C56A G120U
Response: -0.119

Query: Ok, now G23A G71A
Response: -5.75

Query: Ok, now G48A G63A C86U U116A C124U
Response: -2.18

Query: Ok, now G51A U87A C101A
Response: -4.9

Query: Ok, now G39U C86G C104A
Response: -4.01

Query: Ok, now G45U G63A
Response: -2.32

Query: Ok, now C4U C8G G47C C123A
Response: -0.0311

Query: Ok, now G45A U92A
Response: -3.38

Query: Ok, now C8U A46U
Response: -0.626

Query: Ok, now A103C C104U U116C
Response: -6.48

Query: Ok, now G93C C102A U116G
Response: -5.28

Query: Ok, now G10U C28U C53U C73U U96C C104A G110A
Response: 0.843

Query: Ok, now C82G C98A A118U
Response: -5.57

Query: Ok, now C3U C22G C56U G117C
Response: -4.66

Query: Ok, now A16U C79U C86A G120U G128A
Response: -4.89

Query: Ok, now U7A C12A C20A G42U
Response: -3.2

Query: Ok, now G42A G60A
Response: -2.03

Query: Ok, now C56A C73A C94U G113A
Response: -2.48

Query: Ok, now C28G G113C
Response: -6.23

Query: Ok, now G71A C89U A111U U112A C123A G127C
Response: -2.37

Query: Ok, now C13G A119U
Response: 0.114

Query: Ok, now C40U G113A C114G
Response: -2.13

Query: Ok, now C72G G77U C85U U106A U109A
Response: -7.01

Query: Ok, now C15U A50U G63C C89U
Response: -3.78

Query: Ok, now C12U G19U A43U C64G A95C G117U
Response: -7.83

Query: Ok, now G36A C49G G93A A95G
Response: -3.09

Query: Ok, now A43C U125G
Response: -2.24

Query: Ok, now C31A C98U
Response: -7.02

Query: Ok, now G36U C104U
Response: -1.41

Query: Ok, now A46U C124A
Response: 0.552

Query: Ok, now A6U U96C
Response: -0.215

Query: Ok, now G23U G58A G60C G120C
Response: -7.23

Query: Ok, now C4U A18U U55G C86U
Response: -2.79

Query: Ok, now A37C C49A A66C C104U U125G
Response: -1.63

Query: Ok, now C11U C53G A91U
Response: -1.86

Query: Ok, now C13U G93C
Response: -0.682

Query: Ok, now C40A G61U G93U A100C
Response: -1.18

Query: Ok, now C12A C72U C98A
Response: -6.65

Query: Ok, now U59G G60A C70G C115A A121C
Response: -4.99

Query: Ok, now A2U G10U A18G U33G G60A C124A
Response: -6.77
